Just for reference, patent US20040018971A1 is where these values come from.

# TESTED TARGET: HLA-A*2401 (purified HLA class I molecule) (human)
# ASSAY METHOD TEXT: competition with 125I-labelled probe peptide for purified HLA, gel filtration
Doc: threshold 0.02 (exclusive). Items with relative binding ratio (IC50 of standard peptide / IC50 of test peptide) beneath it return Y; others return N.

Solved entries:
>>> class("VMAGVGSPY [HER2/neu peptide, position 773, 9 amino acids]")
"Y"
>>> class("WMALESIL [HER2/neu peptide, position 888, 8 amino acids]")
"Y"
>>> class("VYMIMVKCWM [HER2/neu peptide, position 951, 10 amino acids]")
"N"

[Q] Is the reported relative binding ratio (IC50 of standard peptide / IC50 of test peptide) for YVMAGVGSPY [HER2/neu peptide, position 772, 10 amino acids] strictly below 0.02?
[A] Y

[Q] Is the reported relative binding ratio (IC50 of standard peptide / IC50 of test peptide) for TYLPTNASLSF [HER2/neu peptide, position 63, 11 amino acids] strictly below 0.02?
[A] N

[Q] Is the reported relative binding ratio (IC50 of standard peptide / IC50 of test peptide) for VFETLEEI [HER2/neu peptide, position 399, 8 amino acids] strictly below 0.02?
[A] Y

[Q] Is the reported relative binding ratio (IC50 of standard peptide / IC50 of test peptide) for VYMIMVKCW [HER2/neu peptide, position 951, 9 amino acids] strictly below 0.02?
[A] N

[Q] Is the reported relative binding ratio (IC50 of standard peptide / IC50 of test peptide) for VWSYGVTVW [HER2/neu peptide, position 905, 9 amino acids] strictly below 0.02?
[A] N
